- Test system: NCI-H1975
- assay procedure: Antiproliferative activity against human NCI-H1975 cells after 72 hrs by MTT assay
- Format: functional, cell-based
- condition notes: NCI-H1975, 72 h
measured attribute: IC50 (µM)
Write the answer as a number in µM, unit excluded.

[ask] Find the recorded IC50 belonging to C=CCc1cc(-c2cc(/C=C/C=O)ccc2O)ccc1O and report it.
[reply] 34.1

[ask] Also check C=CCc1ccc(O)c(-c2cc(CC=C)cc(CN3CCC(NC(=O)OC(C)(C)C)CC3)c2O)c1
[reply] 15.8

[ask] Input C=CCc1ccc(O)c(-c2cc(CC=C)cc(CN3CCN(CCO)CC3)c2O)c1
[reply] 16.5

[ask] What do you have for C=CCc1ccc(O)c(-c2ccc(O)c(CC=C)c2)c1 ?
[reply] 30.2
